assay: activity coefficient (dimensionless); of the first substance listed, at infinite dilution; xn = mol fraction of the nth substance listed; conditions: 332.55 K; Liquid; inverse gas chromatography; x1 = 0
value_kind: activity coefficient

molecule	observed_result
CC(C)O [propan-2-ol] + CCCCn1cc[n+](C)c1.F[B-](F)(F)F	2.15
CCC[N+](=O)[O-] [1-nitropropane] + CCCCn1cc[n+](C)c1.F[B-](F)(F)F	1.5
CC1CCCCC1 [methylcyclohexane] + CCCCn1cc[n+](C)c1.F[B-](F)(F)F	57.1
Cc1cccc(C)c1 [1,3-dimethylbenzene] + CCCCn1cc[n+](C)c1.F[B-](F)(F)F	6.56
CCC=O [propanal] + CCCCn1cc[n+](C)c1.F[B-](F)(F)F	1.21

[1] C=CCCCC [hex-1-ene] + CCCCn1cc[n+](C)c1.F[B-](F)(F)F
[2] C1CCCCCC1 [cycloheptane] + CCCCn1cc[n+](C)c1.F[B-](F)(F)F
[3] CC(C)CC(C)(C)C [2,2,4-trimethylpentane] + CCCCn1cc[n+](C)c1.F[B-](F)(F)F
With regard to activity coefficient, arrange the entries in ascending order, please. Respond with an ordered listing of the labels, as requested.
1, 2, 3
(1: 38.8, 2: 167, 3: 272)

[1] CCCCCCCCC [nonane] + CCCCn1cc[n+](C)c1.F[B-](F)(F)F
[2] C#CCCCC [1-hexyne] + CCCCn1cc[n+](C)c1.F[B-](F)(F)F
Between 1 and 2 , which one shows the larger activity coefficient value? Give the label of your selection.
1

[I] CCCCO [butan-1-ol] + CCCCn1cc[n+](C)c1.F[B-](F)(F)F
[II] CCCCCCCC [octane] + CCCCn1cc[n+](C)c1.F[B-](F)(F)F
[III] CC1CCCC1 [methylcyclopentane] + CCCCn1cc[n+](C)c1.F[B-](F)(F)F
[IV] CCC(C)CC [3-methylpentane] + CCCCn1cc[n+](C)c1.F[B-](F)(F)F
Could you please sort these 4 entries by activity coefficient from high to low? Respond with an ordered listing of the labels, as requested.
II, IV, III, I

[a] c1ccccc1 [benzene] + CCCCn1cc[n+](C)c1.F[B-](F)(F)F
[b] CC(C)OC(C)C [diisopropyl ether] + CCCCn1cc[n+](C)c1.F[B-](F)(F)F
[c] CCCCCCC [heptane] + CCCCn1cc[n+](C)c1.F[B-](F)(F)F
With regard to activity coefficient, arrange the entries in ascending order, please. Respond with an ordered listing of the labels, as requested.
a, b, c
(a: 2.16, b: 24.3, c: 142)

[I] C1CCCCC1 [cyclohexane] + CCCCn1cc[n+](C)c1.F[B-](F)(F)F
[II] ClCCl [dichloromethane] + CCCCn1cc[n+](C)c1.F[B-](F)(F)F
Pick one, I or II : lowest reported activity coefficient. Give the label of your selection.
II
(II: 0.79, I: 35.3)

[a] CCN(CC)CC [triethylamine] + CCCCn1cc[n+](C)c1.F[B-](F)(F)F
[b] CCCC=O [butanal] + CCCCn1cc[n+](C)c1.F[B-](F)(F)F
[c] C1COCCO1 [1,4-dioxane] + CCCCn1cc[n+](C)c1.F[B-](F)(F)F
[d] OCC(F)(F)F [2,2,2-trifluoroethanol] + CCCCn1cc[n+](C)c1.F[B-](F)(F)F
With regard to activity coefficient, arrange the entries in ascending order, please. Respond with an ordered listing of the labels, as requested.
d, c, b, a
(d: 0.3, c: 1.22, b: 2.06, a: 59.4)

[A] CCC(=O)CC [pentan-3-one] + CCCCn1cc[n+](C)c1.F[B-](F)(F)F
[B] ClC(Cl)Cl [trichloromethane] + CCCCn1cc[n+](C)c1.F[B-](F)(F)F
Between A and B , which one shows the larger activity coefficient value? Give the label of your selection.
A

[I] C=O [methanal] + CCCCn1cc[n+](C)c1.F[B-](F)(F)F
[II] c1ccsc1 [thiophene] + CCCCn1cc[n+](C)c1.F[B-](F)(F)F
Pick one, I or II : lowest reported activity coefficient. Give the label of your selection.
I
(I: 0.25, II: 1.49)

---

assay: activity coefficient (dimensionless); of the first substance listed, at infinite dilution; xn = mol fraction of the nth substance listed; conditions: 303.35 K; Liquid; inverse gas chromatography; x1 = 0
value_kind: activity coefficient

Would you please look over these solved cases?
compound	activity coefficient
CC(C)O [propan-2-ol] + CCCCn1cc[n+](C)c1.F[B-](F)(F)F	3.2
c1ccccc1 [benzene] + CCCCn1cc[n+](C)c1.F[B-](F)(F)F	2.2
ClC(Cl)(Cl)Cl [tetrachloromethane] + CCCCn1cc[n+](C)c1.F[B-](F)(F)F	5.53

[P] CC(C)CC(C)(C)C [2,2,4-trimethylpentane] + CCCCn1cc[n+](C)c1.F[B-](F)(F)F
[Q] C1COCCO1 [1,4-dioxane] + CCCCn1cc[n+](C)c1.F[B-](F)(F)F
Pick one, P or Q : lowest reported activity coefficient. Give the label of your selection.
Q
(Q: 1.26, P: 321)

---

assay: activity coefficient (dimensionless); of the first substance listed, at infinite dilution; xn = mol fraction of the nth substance listed; settings: 312.55 K; Liquid; inverse gas chromatography; x1 = 0
value_kind: activity coefficient

Would you please look over these solved cases?
compound	value_kind	observed_result
CCC(C)=O [butanone] + CCCCn1cc[n+](C)c1.F[B-](F)(F)F	activity coefficient	1.48
Cc1ccccc1 [toluene] + CCCCn1cc[n+](C)c1.F[B-](F)(F)F	activity coefficient	3.96

[I] CC1CCCC1 [methylcyclopentane] + CCCCn1cc[n+](C)c1.F[B-](F)(F)F
[II] CCCCO [butan-1-ol] + CCCCn1cc[n+](C)c1.F[B-](F)(F)F
[III] C1CCCCCC1 [cycloheptane] + CCCCn1cc[n+](C)c1.F[B-](F)(F)F
With regard to activity coefficient, arrange the entries in ascending order, please. Respond with an ordered listing of the labels, as requested.
II, I, III

---

experiment: activity coefficient (dimensionless); of the first substance listed, at infinite dilution; xn = mol fraction of the nth substance listed; conditions: 312.55 K; Liquid; inverse gas chromatography; x1 = 0
value_kind: activity coefficient

compound	activity coefficient
CCC(=O)CC [pentan-3-one] + CCCCn1cc[n+](C)c1.F[B-](F)(F)F	2.57

[A] CCCC(C)=O [pentan-2-one] + CCCCn1cc[n+](C)c1.F[B-](F)(F)F
[B] CC(C)CC(C)(C)C [2,2,4-trimethylpentane] + CCCCn1cc[n+](C)c1.F[B-](F)(F)F
Between A and B , which one shows the larger activity coefficient value? Give the label of your selection.
B

[P] CC#N [acetonitrile] + CCCCn1cc[n+](C)c1.F[B-](F)(F)F
[Q] c1ccccc1 [benzene] + CCCCn1cc[n+](C)c1.F[B-](F)(F)F
[R] CO [methanol] + CCCCn1cc[n+](C)c1.F[B-](F)(F)F
Could you please sort these 3 entries by activity coefficient from high to low? Respond with an ordered listing of the labels, as requested.
Q, R, P

[a] CCCO [propan-1-ol] + CCCCn1cc[n+](C)c1.F[B-](F)(F)F
[b] CCCCCCC [heptane] + CCCCn1cc[n+](C)c1.F[B-](F)(F)F
[c] C1COCCO1 [1,4-dioxane] + CCCCn1cc[n+](C)c1.F[B-](F)(F)F
[d] C#CCCCC [1-hexyne] + CCCCn1cc[n+](C)c1.F[B-](F)(F)F
Could you please sort these 4 entries by activity coefficient from high to low? Respond with an ordered listing of the labels, as requested.
b, d, a, c
(b: 250, d: 7.53, a: 2.7, c: 1.24)

---

experiment: activity coefficient (dimensionless); of the first substance listed, at infinite dilution; xn = mol fraction of the nth substance listed; conditions: 312.55 K; Liquid; inverse gas chromatography; x1 = 0
value_kind: activity coefficient

Would you please look over these solved cases?
compound	activity coefficient
C#CCCCCC [1-heptyne] + CCCCn1cc[n+](C)c1.F[B-](F)(F)F	12.5
C1CCCCC1 [cyclohexane] + CCCCn1cc[n+](C)c1.F[B-](F)(F)F	48.4
OCC(F)(F)F [2,2,2-trifluoroethanol] + CCCCn1cc[n+](C)c1.F[B-](F)(F)F	0.33

[P] CCC=O [propanal] + CCCCn1cc[n+](C)c1.F[B-](F)(F)F
[Q] C=CCCCC [hex-1-ene] + CCCCn1cc[n+](C)c1.F[B-](F)(F)F
Pick one, P or Q : lowest reported activity coefficient. Give the label of your selection.
P
